# measured-on: TcrNT2 (Trypanosoma cruzi)
# Sequence (Q4DHG0 entry or part of it): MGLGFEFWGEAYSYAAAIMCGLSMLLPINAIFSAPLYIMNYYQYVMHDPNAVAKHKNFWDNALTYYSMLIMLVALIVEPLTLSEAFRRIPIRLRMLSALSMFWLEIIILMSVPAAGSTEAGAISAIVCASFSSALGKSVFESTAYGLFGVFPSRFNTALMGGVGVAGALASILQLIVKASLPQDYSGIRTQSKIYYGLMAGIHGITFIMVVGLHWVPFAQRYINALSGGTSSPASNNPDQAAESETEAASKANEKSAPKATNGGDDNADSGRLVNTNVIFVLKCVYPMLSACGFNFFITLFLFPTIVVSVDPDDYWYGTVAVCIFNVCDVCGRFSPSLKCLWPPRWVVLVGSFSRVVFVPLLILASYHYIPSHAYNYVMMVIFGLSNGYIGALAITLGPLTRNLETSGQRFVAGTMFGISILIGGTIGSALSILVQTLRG
# test-details: Transport of [^3H]-thymidine by TcrNT2 expressed in L. mexicana Cas9^ΔNT1 (Km, inhibition)
# Assay type: cell-based
# measurement-context: calculated from Km or Ki at 25 °C
assay-readout: ΔG° (Gibbs free energy of interaction)
Write the numeric value and append its unit.

Here is how some molecules turned out for ΔG° (Gibbs free energy of interaction).
O=c1[nH]c(=O)n([C@H]2C[C@H](O)[C@@H](CO)O2)cc1I	-9.15 kcal/mol
Nc1ncnc2c1ccn2[C@@H]1O[C@H](CO)[C@@H](O)[C@H]1O	-4.18 kcal/mol
O=c1ccn([C@H]2C[C@H](O)[C@@H](CO)O2)c(=O)[nH]1	-8.03 kcal/mol
O=c1ccn([C@@H]2O[C@H](CO)[C@@H](O)[C@H]2O)c(=O)[nH]1	-5.14 kcal/mol
O=c1[nH]c(=O)n([C@@H]2O[C@H](CO)[C@@H](O)[C@H]2O)cc1Br	-6.17 kcal/mol

Exercise: Which ΔG° (Gibbs free energy of interaction) reading was recorded for the molecule Cc1cn([C@H]2CC[C@@H](CO)O2)c(=O)[nH]c1=O ?
Solution: -4.76 kcal/mol
